Source of measurements: patent US20240109865A1

# assayTarget: FGFR4 (Homo sapiens (Human))
# Sequence (P22455 22-802): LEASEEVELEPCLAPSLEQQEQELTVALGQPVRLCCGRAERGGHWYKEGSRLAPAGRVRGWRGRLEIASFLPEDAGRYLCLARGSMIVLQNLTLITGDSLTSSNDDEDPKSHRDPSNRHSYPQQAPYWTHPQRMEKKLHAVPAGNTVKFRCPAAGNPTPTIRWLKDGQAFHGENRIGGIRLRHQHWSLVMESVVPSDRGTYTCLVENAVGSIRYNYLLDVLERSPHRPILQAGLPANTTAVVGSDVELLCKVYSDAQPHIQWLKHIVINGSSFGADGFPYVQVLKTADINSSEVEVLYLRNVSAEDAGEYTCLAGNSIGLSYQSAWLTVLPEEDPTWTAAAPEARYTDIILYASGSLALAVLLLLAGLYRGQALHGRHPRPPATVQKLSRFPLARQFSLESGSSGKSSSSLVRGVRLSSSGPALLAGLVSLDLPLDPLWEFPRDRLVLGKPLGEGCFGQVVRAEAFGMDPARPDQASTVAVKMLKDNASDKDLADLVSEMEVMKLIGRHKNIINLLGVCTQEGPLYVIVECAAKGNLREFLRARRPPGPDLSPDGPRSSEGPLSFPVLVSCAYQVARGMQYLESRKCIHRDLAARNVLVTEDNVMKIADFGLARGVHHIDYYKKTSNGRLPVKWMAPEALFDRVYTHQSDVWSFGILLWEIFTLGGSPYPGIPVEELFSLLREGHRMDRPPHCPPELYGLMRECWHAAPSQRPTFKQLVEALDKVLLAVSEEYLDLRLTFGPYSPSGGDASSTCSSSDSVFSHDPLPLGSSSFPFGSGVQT
# testDescription: Kinase assay, binding constants (Kd), kinase-tagged T7 phage, qPCR
# Protocol: Kinase-tagged T7 phage strains were prepared in an E. coli host derived from the BL21 strain. E. coli were grown to log-phase and infected with T7 phage and incubated with shaking at 32° C. until lysis. The lysates were centrifuged and filtered to remove cell debris. […] Test compounds were prepared as 111λ stocks in 10000 DMS0. Kds were determined using an 11-point 3-fold compound dilution series with three DMSO control points. […] The kinase concentration in the eluates was measured by qPCR. […]
measuredMetric: Kd

Observe how each entry below is paired with its result.
C[C@@H](Oc1ccc2[nH]nc(-c3cnc(N4CCCN(C(N)=O)CC4)nc3)c2c1)c1c(Cl)cncc1Cl | 1 to 20 nM
C[C@@H](Oc1ccc2[nH]nc(-c3cnc(N4CC5(CNC5)C4)nc3)c2c1)c1c(Cl)cncc1Cl | 1 to 20 nM
C[C@@H](Oc1cc2c(-c3cnc(N4CC5(C4)CN(S(C)(=O)=O)C5)c(C#N)c3)n[nH]c2cc1F)c1c(Cl)cncc1Cl | 1 to 20 nM
C[C@@H](Oc1ccc2[nH]nc(-c3ccc(N4CC5(CCN(S(C)(=O)=O)CC5)OC4=O)nc3)c2c1)c1c(Cl)cncc1Cl | 1 to 20 nM
C[C@@H](Oc1ccc2[nH]nc(-c3cnc(N4CC5(CCS(=O)(=O)C5)C4)c(C#N)c3)c2c1)c1c(Cl)cncc1Cl | 1 to 20 nM

# return Kd for each item in the list
1. C[C@@H](Oc1cc2c(-c3cnc(N4CC5(CCCN(S(C)(=O)=O)C5)C4)c(C#N)c3)n[nH]c2cc1F)c1c(Cl)cncc1Cl
2. COc1cc2[nH]nc(-c3cnc(N4CC5(COC5)C4)c(C)c3)c2cc1O[C@H](C)c1c(C)cnnc1C
3. COc1cc2[nH]nc(-c3cnc(N4CC5(C4)CN(S(C)(=O)=O)C5)c(C)c3)c2cc1O[C@H](C)c1c(Cl)cncc1Cl

Response:
["1 to 20 nM", "1 to 20 nM", "1 to 20 nM"]

Please supply Kd for each of the following items, keeping them in order.
1. C[C@@H](Oc1ccc2[nH]nc(-c3cnc(N4CCN(C(=O)N5CCN(C)CC5)CC4)nc3)c2c1)c1c(Cl)cncc1Cl
2. Cc1cnnc(C)c1[C@@H](C)Oc1ccc2[nH]nc(-c3cnc(N4CC5(CCS(=O)(=O)C5)C4)nc3)c2c1
3. COc1cc2[nH]nc(-c3cnc(N4CC[C@H](O)C4)c(C#N)c3)c2cc1O[C@H](C)c1c(C)cnnc1C
4. Cc1cc(-c2n[nH]c3ccc(O[C@H](C)c4c(Cl)cncc4Cl)cc23)cnc1N1CC2(C1)CN(S(C)(=O)=O)C2
5. Cc1ncc(Cl)c([C@@H](C)Oc2ccc3[nH]nc(-c4cnn(C5CCNCC5)c4)c3c2)c1Cl
6. CC(C)N1CC[C@@H](n2cc(-c3n[nH]c4ccc(O[C@H](C)c5c(Cl)cncc5Cl)cc34)cn2)C1
7. COc1cc2[nH]nc(-c3ccc(N4CC5(COC5)C4)nc3)c2cc1O[C@H](C)c1c(Cl)cnc(C)c1Cl
8. C[C@@H](Oc1ccc2[nH]nc(-c3cnn(C4CCS(=O)(=O)CC4)c3)c2c1)c1cc(F)cc(F)c1

Response:
1. 1 to 20 nM
2. 1 to 20 nM
3. 1 to 20 nM
4. 1 to 20 nM
5. 20 to 100 nM
6. 20 to 100 nM
7. 1 to 20 nM
8. > 300 nM

Request: Request the reported Kd associated with `C[C@@H](Oc1ccc2[nH]nc(-c3ccc(N4CCN5C[C@H](O)C[C@H]5C4)nc3)c2c1)c1c(Cl)cncc1Cl`
Response: 1 to 20 nM
